B1: TPR t1 (parent)
chain: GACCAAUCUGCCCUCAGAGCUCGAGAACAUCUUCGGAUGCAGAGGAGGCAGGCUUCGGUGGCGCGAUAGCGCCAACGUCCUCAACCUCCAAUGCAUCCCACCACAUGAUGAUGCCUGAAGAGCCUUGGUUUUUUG

variants of: B1; test: polymerase ribozyme fitness, log enrichment relative to wild type (log ratio); higher = more active; in vitro selection for triplet polymerase activity
Each entry below carries its reported polymerase ribozyme fitness (log ratio).

MUTANT_DESIGNATION	polymerase ribozyme fitness (log ratio)
C20A G52C	-2.97
A24G G36C C49A G63U	-4.77
G51A C64U A105G C115G	-8.49
C3U G10A U21C G61A C98U A119U	-2.55
G52U G93U G110U	-3.97
